- Tested Target: PCM1 WT LIR peptide
- Test Summary: BLI; biotinylated LIR peptide immobilised on streptavidin biosensors (Octet Red 96), ATG8 protein in solution; 25 mM Tris pH 7.5, 150 mM NaCl, 0.5 mM TCEP, 0.1% Tween-20, 1 mg/ml BSA, 25 °C; Kd from response against concentration, Y=Rmax*X/(Kd+X)
I'd be grateful if you could share measured pKd for these entries.
Numbers only, as −log10 of the molar value.

These recorded examples may help you get a feel for the data.
Substance: GABARAP K24Q/Y25H/Q59E/F60L (from UniProt O95166 1-117) (natural protein)
pKd: 3.60
//
Substance: GABARAP K24Q/Y25H/R28K (from UniProt O95166 1-117) (natural protein)
pKd: 4.18
//
Substance: GABARAP Y25H (from UniProt O95166 1-117) (natural protein)
pKd: 4.94

Exercise: Please report the recorded pKd for GABARAP K24Q (from UniProt O95166 1-117) (natural protein) .
Solution: 4.78
